Item-by-item account of MEAN CORPUSCULAR HEMOGLOBIN CONCENTRATION
species on record: Rattus norvegicus; assay: DrugMatrix - Regimen: Daily Repeat; type: toxicity, organism-based, Sprague-Dawley; parameters: regimen Daily Repeat, gender Male, age 6-8 weeks; settings: in vivo, po, 2000 mg/kg, 120 h, tissue Blood, route oral GAVAGE, dose level High, time 5 day, vehicle .5 % CMC
Reported property: MEAN CORPUSCULAR HEMOGLOBIN CONCENTRATION (G/DL)

# Molecule, Meas value
measured = [
    ("CC1(C)S[C@@H]2[C@H](NC(=O)[C@H](N)c3ccccc3)C(=O)N2[C@H]1C(=O)O", 40.1),
    ("COc1cc2nc(N3CCN(C(=O)c4ccco4)CC3)nc(N)c2cc1OC", 39.13),
    ("CN(C/C=C/C#CC(C)(C)C)Cc1cccc2ccccc12", 36.9),
    ("CN/C(=N/CCSCc1nc[nH]c1C)NC#N", 40.77),
    ("O=C1Nc2ccc(Cl)cc2C(c2ccccc2Cl)=NC1O (stereo unspecified)", 40.5),
    ("NC1CCN(c2nc3c(cc2F)c(=O)c(C(=O)O)cn3-c2ccc(F)cc2F)C1 (stereo unspecified)", 36.23),
]
